# system: Snake venom metalloproteinase BaP1 (Bothrops asper)
# Sequence (P83512 whole entry): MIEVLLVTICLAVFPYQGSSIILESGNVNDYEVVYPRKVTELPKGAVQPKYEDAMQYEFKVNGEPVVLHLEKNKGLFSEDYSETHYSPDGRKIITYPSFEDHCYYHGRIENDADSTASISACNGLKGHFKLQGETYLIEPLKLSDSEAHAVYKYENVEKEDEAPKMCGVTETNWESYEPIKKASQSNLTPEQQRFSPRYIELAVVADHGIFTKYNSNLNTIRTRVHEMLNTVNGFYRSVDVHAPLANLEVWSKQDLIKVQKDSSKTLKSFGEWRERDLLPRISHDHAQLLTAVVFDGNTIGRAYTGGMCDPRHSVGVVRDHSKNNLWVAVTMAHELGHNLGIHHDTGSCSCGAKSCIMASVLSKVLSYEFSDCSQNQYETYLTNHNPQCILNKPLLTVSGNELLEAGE
Structures can show the parent of a compound that is named as a salt. Residues, ends and D or L forms follow the SMILES beside them. *: point of attachment. NHOH = ON*
Grouping rule (IC50): 0: < 30 µM; 1: ≥ 30 µM and < 90 µM; 2: ≥ 90 µM

Known results for compounds:
CNC(=O)[C@H](Cc1ccccc1)NC(=O)[C@H](CC(C)C)[C@H](CSc1cccs1)C(=O)NO :: 0
CC(C)C[C@H](NC(=O)[C@@H](N)Cc1ccccc1)C(=O)N[C@@H](CCCNC(=N)N)C(=O)NO (H-Phe-Leu-Arg-{NHOH}) :: 0
Nc1ccc(/N=N/c2ccccc2)c(N)n1 [PHENAZOPYRIDINE HYDROCHLORIDE] :: 1
CC(C)C[C@H](NC(=O)[C@@H](N)Cc1c[nH]c2ccccc12)C(=O)N[C@@H](CCCNC(=N)N)C(=O)NO :: 2
CC(C)C[C@H](NC(=O)[C@@H](N)Cc1c[nH]c2ccccc12)C(=O)N[C@@H](Cc1ccccc1)C(N)=O (H-Trp-Leu-Phe-NH2) :: 2
CC(C)C[C@H](NC(=O)[C@@H](N)Cc1c[nH]c2ccccc12)C(=O)N[C@@H](Cc1ccc(O)cc1)C(=O)NO (H-Trp-Leu-Tyr-{NHOH}) :: 1
CC(C)C[C@H](NC(=O)[C@@H](N)Cc1ccccc1)C(=O)N[C@@H](Cc1ccccc1)C(N)=O (H-Phe-Leu-Phe-NH2) :: 2
COc1ccc2c3c([nH]c2c1)C(C)=NCC3 [HARMALINE HYDROCHLORIDE DIHYDRATE] :: 1

## Task Band of CC(C)C[C@H](NC(=O)[C@@H](N)Cc1c[nH]c2ccccc12)C(=O)N[C@@H](Cc1ccc(O)cc1)C(N)=O (H-Trp-Leu-Tyr-NH2) ?
## Result 2

## Task Input CC(C)C[C@H](NC(=O)[C@@H](N)Cc1ccccc1)C(=O)N[C@@H](Cc1cnc[nH]1)C(=O)NO (H-Phe-Leu-His-{NHOH}) ; output its category
## Result 2

## Task Bin this entry: CC(C)C[C@H](NC(=O)[C@@H](N)Cc1ccccc1)C(=O)N[C@@H](Cc1ccccc1)C(=O)NO (H-Phe-Leu-Phe-{NHOH})
## Result 0

## Task Exam item: assign CC(C)C[C@H](NC(=O)[C@@H](N)Cc1c[nH]c2ccccc12)C(=O)N[C@@H](Cc1ccccc1)C(=O)NO (H-Trp-Leu-Phe-{NHOH}) to the correct category.
## Result 1

## Task Lab note: which band did COc1cc2c(cc1OC)-c1cc3ccc(OC)c(OC)c3c[n+]1CC2 [PALMATINE CHLORIDE] land in?
## Result 2

## Task Category lookup for the compound CC(C)C[C@H](NC(=O)[C@@H](N)Cc1c[nH]c2ccccc12)C(=O)N[C@@H](Cc1cnc[nH]1)C(=O)NO (H-Trp-Leu-His-{NHOH})
## Result 1

## Task Which bin, given its IC50, does CC(C)C[C@H](NC(=O)[C@@H](N)Cc1ccccc1)C(=O)N[C@@H](Cc1ccc(O)cc1)C(N)=O (H-Phe-Leu-Tyr-NH2) occupy?
## Result 2
